Recorded values, source paper PMC2248166.

Target: HLA B*5801 (Homo sapiens, UniProt P01889, A329T/C349S/D201E/D98Y/E176V/E187L/E204Q/E69T/G107R/I218V/I90N/K202T/L105A/L119I/N104I/N87E/Q89R/Q94S/R106L/R155S/R180L/R86G/S101N/S121R/S35A/S48A/T118I/V127L/V306I/V36M/Y140S/Y91M)
Assay type: binding
Assignment: determine reported Normalized average relative binding affinity (ARB), HLA B*5801 for the given sequences.
Keep it simple and answer with nothing but the number.

Form field: reported Normalized average relative binding affinity (ARB), HLA B*5801 of XXGXXXXXX [3064.0046]
0.12

Input XXWXXXXXX [3064.0059]
0.29

One more sequence: LXXXXXXXX [3064.0010]
0.53

Again, but for XXMXXXXXX [3064.0051]
0.48

XLXXXXXXX [3064.0030] , same question.
0.043

How about TXXXXXXXX [3064.0017] ?
0.12

Same read-out for XXFXXXXXX [3064.0045] ?
0.52

Likewise for XMXXXXXXX [3064.0031] ?
0.0033

Moving on to XXXDXXXXX [3064.0063]
0.17

Let us now turn to XXXAXXXXX [3064.0061]
0.46

// repeat for XKXXXXXXX [3064.0029] and report
0.014

// next record XXSXXXXXX [3064.0056]
0.33

Can you handle PXXXXXXXX [3064.0013] next?
0.030

Similarly, XQXXXXXXX [3064.0034] ?
0.024

Same question for XGXXXXXXX [3064.0026] please.
0.14

Ok, now XNXXXXXXX [3064.0032]
0.012

Same thing, different sequence: XXQXXXXXX [3064.0054]
0.15

What would you report for XXKXXXXXX [3064.0049] ?
0.020

Do the same for XXLXXXXXX [3064.0050] please
0.61

Field entry: VXXXXXXXX [3064.0018]
0.74

Field entry: SXXXXXXXX [3064.0016]
0.16

// same read-out, input: AXXXXXXXX [3064.0001]
0.33

Same lookup for XVXXXXXXX [3064.0038] , please.
0.14

Also HXXXXXXXX [3064.0007] , if possible.
0.43

Now the same for XFXXXXXXX [3064.0025]
0.097
